Where these numbers come from: the kinase profiling compilation of Christmann-Franck et al. (2016)

molecular target: MARK3 (human) (UniProt P27448); settings: compound 1.0 µM
Sequence (P27448 whole entry, looked up): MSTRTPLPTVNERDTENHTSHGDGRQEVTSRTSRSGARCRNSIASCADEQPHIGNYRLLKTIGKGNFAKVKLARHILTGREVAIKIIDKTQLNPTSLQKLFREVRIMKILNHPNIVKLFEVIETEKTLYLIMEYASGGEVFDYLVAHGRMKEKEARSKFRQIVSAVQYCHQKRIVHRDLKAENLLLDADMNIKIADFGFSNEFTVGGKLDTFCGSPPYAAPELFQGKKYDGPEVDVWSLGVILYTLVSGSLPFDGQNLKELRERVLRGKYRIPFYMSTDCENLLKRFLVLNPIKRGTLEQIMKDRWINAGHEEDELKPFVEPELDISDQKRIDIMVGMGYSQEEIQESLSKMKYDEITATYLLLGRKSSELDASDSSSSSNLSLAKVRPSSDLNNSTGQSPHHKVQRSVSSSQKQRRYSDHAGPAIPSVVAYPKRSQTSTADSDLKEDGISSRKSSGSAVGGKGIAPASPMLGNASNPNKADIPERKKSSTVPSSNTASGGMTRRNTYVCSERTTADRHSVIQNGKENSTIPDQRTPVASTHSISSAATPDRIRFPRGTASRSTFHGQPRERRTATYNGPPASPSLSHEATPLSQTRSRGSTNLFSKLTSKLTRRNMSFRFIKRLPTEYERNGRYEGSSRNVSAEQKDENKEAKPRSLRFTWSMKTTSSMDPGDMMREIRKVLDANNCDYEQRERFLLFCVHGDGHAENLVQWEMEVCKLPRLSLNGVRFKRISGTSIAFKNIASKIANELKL
MEASURED_PROPERTY: per cent of control (%)

> print(dat)
                               smiles.entry  result
1  CC(C)n1nc(-c2cc3cc(O)ccc3[nH]2)c2c(N)ncnc21      67
2  CCC(=O)N1CCN(c2ccc(-n3c(=O)ccc4cnc5ccc(-c6cnc7ccccc7c6)cc5c43)cc2C(F)(F)F)CC1      99
3  COc1ccc(-c2ccc3c(N4CCOCC4)nc(N4C[C@@H](C)O[C@@H](C)C4)nc3n2)cc1CO      93
4  COC(=O)Nc1ccc(-c2nc(N3CCOCC3)c3cnn(C4CCN(C(=O)OC)CC4)c3n2)cc1      92
